# TGT: Interleukin-1 alpha (Homo sapiens)
ASSAY READOUT: pIC50
Note: pIC50 values are expressed as the negative base-10 logarithm of concentration in M.

Recorded pIC50 for CC(C)c1cc(-c2cc(C(=O)O)cn3cc(C(=O)N4CCN(S(=O)(=O)c5ccccc5)CC[C@H]4C(=O)NCCN4CCOCC4)nc23)ccc1C=O on Interleukin-1 alpha (Homo sapiens) was 4.00

* * *

# TGT: Interleukin-1 beta (Homo sapiens)
# Sequence (P01584 117-269 limits assumed): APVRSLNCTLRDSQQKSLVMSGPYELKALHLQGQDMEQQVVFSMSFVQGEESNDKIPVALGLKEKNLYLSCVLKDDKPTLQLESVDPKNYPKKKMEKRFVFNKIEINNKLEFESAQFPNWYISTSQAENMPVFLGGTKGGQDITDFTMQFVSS
ASSAY READOUT: pIC50
Note: pIC50 values are expressed as the negative base-10 logarithm of concentration in M.

// pIC50 lookup, compound = Cc1ccc2c(c1)NC(=O)[C@@]2(c1cn[nH]c1)c1cc(-c2ccc(C(=O)O)cc2C(=O)O)ccc1O , result: 5.10
